Ref: ChEMBL document CHEMBL1154722

- ASSAY_METHOD_TEXT: Inhibition of soybean lipoxygenase assessed as conversion of sodium linoleate to 13-hydroperoxylinoleate
- Parameters: species or system Glycine max
Kindly state IC50 for each of the entries shown.
Your answer is read as µM, so omit the unit and give the number.

Query :: Using known records, supply IC50 for O=C(O)/C=C/C(=O)n1cc(C(=O)Nc2ccccc2)c2ccccc21
Result :: 52.4

Query :: Using known records, supply IC50 for COc1cc(OC)c(C2CC(=O)n3c2c(/C=C/C(=O)O)c2ccccc23)cc1OC (configuration not stated)
Result :: 45.2

Query :: Using known records, supply IC50 for O=C(O)/C=C/c1cn(C(=O)/C=C/c2ccc3c(c2)OCO3)c2ccccc12
Result :: 65

Query :: Using known records, supply IC50 for COc1ccc(NC(=O)c2cn(C(=O)/C=C/C(=O)O)c3ccccc23)c(OC)c1
Result :: 35

Query :: Using known records, supply IC50 for COc1ccc(NC(=O)c2cn(C(=O)/C=C/C(=O)OC(C)(C)C)c3ccccc23)c(OC)c1
Result :: 100

Query :: Using known records, supply IC50 for O=C(O)/C=C/c1ccc(O)c(O)c1
Result :: 600

Query :: Using known records, supply IC50 for CC(C)(C)OC(=O)/C=C/c1cn(C(=O)/C=C/c2ccc3c(c2)OCO3)c2ccccc12
Result :: 82.5

====

- Test system: Glycine max
- ASSAY_METHOD_TEXT: Inhibition of soybean lipoxygenase assessed as conversion of sodium linoleate to 13-hydroperoxylinoleate at 100 uM
Kindly state inhibition for each of the entries shown.
Your answer is read as %, so omit the unit and give the number.

Query :: Using known records, supply inhibition for COc1cc(NC(=O)c2cn(C(=O)/C=C\C(=O)O)c3ccccc23)cc(OC)c1OC
Result :: 42

Query :: Using known records, supply inhibition for COc1cc(NC(=O)c2cn(C(=O)/C=C/C(=O)O)c3ccccc23)cc(OC)c1OC
Result :: 57

Query :: Using known records, supply inhibition for COc1cc(OC)c(OC)cc1/C=C/C(=O)n1ccc(/C(C)=C/C(=O)OC(C)(C)C)c1
Result :: 39

Query :: Using known records, supply inhibition for CC(C)(C)OC(=O)/C=C1/c2ccccc2-c2c(NC(=O)/C=C/c3ccc4c(c3)OCO4)cccc21
Result :: 43

====

Kindly state inhibition for each of the entries shown.
- ASSAY_METHOD_TEXT: Antioxidant activity assessed as inhibition of AAPH-induced lipid peroxidation at 100 uM
- Assay type: functional
Your answer is read as %, so omit the unit and give the number.

Query :: Using known records, supply inhibition for COc1cc(NC(=O)c2cn(C(=O)CCC(=O)O)c3ccccc23)cc(OC)c1OC
Result :: 34

Query :: Using known records, supply inhibition for O=C(O)/C=C/C(=O)n1cc(C(=O)Nc2ccccc2)c2ccccc21
Result :: 85

Query :: Using known records, supply inhibition for COc1ccc(NC(=O)c2cn(C(=O)/C=C/C(=O)O)c3ccccc23)c(OC)c1
Result :: 77

Query :: Using known records, supply inhibition for O=C(O)/C=C/c1cn(C(=O)/C=C/c2ccc3c(c2)OCO3)c2ccccc12
Result :: 22

Query :: Using known records, supply inhibition for COc1cc(OC)c(OC)cc1/C=C/C(=O)n1cc(/C=C/C(=O)OC(C)(C)C)c2ccccc21
Result :: 80

Query :: Using known records, supply inhibition for CC(C)(C)OC(=O)/C=C1/c2ccccc2-c2c(NC(=O)/C=C/c3ccc4c(c3)OCO4)cccc21
Result :: 49

Query :: Using known records, supply inhibition for COc1cc(C)c(/C=C/C(C)=C/C=C/C(C)=C/C(=O)O)c(C)c1C [ACITRETIN]
Result :: 85

Query :: Using known records, supply inhibition for O=C(O)/C=C/C(=O)n1cc(C(=O)Nc2cccc([N+](=O)[O-])c2)c2ccccc21
Result :: 94

Query :: Using known records, supply inhibition for Cc1c(C)c2c(c(C)c1O)CCC(C)(C(=O)O)O2 (configuration not stated)
Result :: 63

Query :: Using known records, supply inhibition for CC(C)(C)OC(=O)/C=C/c1cn(C(=O)/C=C/c2ccc3c(c2)OCO3)c2ccccc12
Result :: 95

Query :: Using known records, supply inhibition for O=C(O)/C=C/c1ccc(O)c(O)c1 [CAFFEIC ACID]
Result :: 17.5

Query :: Using known records, supply inhibition for COc1cc(NC(=O)c2cn(C(=O)/C=C\C(=O)O)c3ccccc23)cc(OC)c1OC
Result :: 8
